- Protocol Details: yeast display, Sf9 membrane polyspecificity reagent, FACS + sequencing; frameworks hold sequencing errors
Readout Type: polyreactivity (PSR sort gate)

As a guide, the following entries are already answered.
Ask | Which polyreactivity (PSR sort gate) value belongs to QVQLVESGGGLVQAGGSLRLSCAASGLTFVYYTMGWYRQAPGKERELVAAISGSGDNTYYADSVKGRFTISRDNAKNTVYLQMNSLKPEDTAVYYCAADKSYYYYLFGYDYWGQGTQVTVSS ?
Reply | low polyreactivity

Ask | Form field: reported polyreactivity (PSR sort gate) of QVQLVESGGGLVQAGGSLRLSCAASGRIFKYYAMGWYRQAPGKERELVAAITWSGGNTYYADSVKGRFTISRDNAKNTVYLQMNSLKPEDTAVYYCAREVYYPIRQYNYWGQGTQVTVSS
Reply | high polyreactivity

Ask | # query: polyreactivity (PSR sort gate) of entry QVQLVESGGGLVQAGGSLRLSCAASGRIFDNYVMGWYRQAPGKERELVAAITWDGTSTYYADSVKGRFTISRDNAKNTVYLQMNSLKPEDTAVYYCAADFYPYSWEEVDYWGQGTQVTVSS
Reply | low polyreactivity

Ask | I have this sequence here, QVQLVESGGGLVQAGGSLRLSCAASGLIFLDYAMGWYRQAPGKERELVAAISRSGGRTYYADSVKGRFTISGDNAKNTVYLQMNSLKPEDTAVYYCAADGSRKSEIYDYWGQGTQVTVSS , and I need its recorded polyreactivity (PSR sort gate).
Reply | high polyreactivity

Ask | Consider the sequence QVQLVESGGGLVQAGGSLRLSCAASGSIFWFYAMGWYRQAPGKERELVAAITSTGGTYYADSVKGRFTISRDNAKNTVYLQMNSLKPEDTAVYYCAADRIGGPGSYLYDYWGQGTQVTVSS and give its measured polyreactivity (PSR sort gate).
Reply | low polyreactivity

New cases:
Ask | Recorded polyreactivity (PSR sort gate) for QVQLVESGGGLVQAGGSLRLSCAASGRIFKYYVMGWYRQAPGKEREFVAAISGRGGRTYYADSVKGRFTISRDNAKNTVYLQMNSLKPEDTAVYYCATERQERGPLGYNYWGLGTQVTVSS , please?
Reply | high polyreactivity

Ask | Which polyreactivity (PSR sort gate) value belongs to QVQLVESGGGLVQAGGSLRLSCAASGFTFRRYAMGWYRQAPGKEREMVAVINVSDGSTYYADSVKGRFTISRDNAKNTVYLQMNSLKPEDTAVYYCAAYLYNRPYQLPGYYDGYGYWGQGTQVTVSS ?
Reply | low polyreactivity

Ask | What measured polyreactivity (PSR sort gate) goes with QVQLVESGGGLVQAGGSLRLSCAASGRIFYYNAMGWYRQAPGKERELVAAITSGGSTNYADSVKGRFTISRDNAKNTVYLQMNSLNPEDTAVYYCAADYYYYVAGVHYDYWGQGTLVTVSS ?
Reply | low polyreactivity

Ask | Given the sequence QVQLVESGGGLVQAGGSLRLSCAASGSILYINAMGWYRQAPGKERELVAAITYSGGSTYYADSVKGRFTISRDNAKNTVYLQMNSLKPEDTAVYYCAADAVVAGRYDGHDYWGQGTQVTVSS , what is its reported polyreactivity (PSR sort gate)?
Reply | low polyreactivity

Ask | Which measured polyreactivity (PSR sort gate) value corresponds to QVQLVESGGGLVQAGGRLRLSCAAAGSTFDGNAMGWYRQAPGKERELVADIDSIGGSTYYADSVKGRFTISRDNAKNTVYLQMNSLKPEDTAVYYCADRRFDTALVLYDYWGQGTQVTVSS ?
Reply | low polyreactivity

Ask | Fill in the blank: the reported polyreactivity (PSR sort gate) of QVQLVESGGGLVQAGGSLRLSCAASGSIFYENNMGWYRQAPGKEREFVAAISRSGGSTYYADSVKRRFTISRDNAKNTVYLQLNSLKPEDTAVYYCAARSRPGYAVYYWGQGTQVTVSS is ____.
Reply | high polyreactivity
